The reported measurements were obtained from patent US20210388087A1.

- Assayed Target: T1, Human CD137 ECD (human)
- T1 construct: entry includes C-terminal His-tag and biotin acceptor peptide; also called human CD137 extracellular domain; 4-1BB
- T1 sequence (chain, as listed by the source limits assumed): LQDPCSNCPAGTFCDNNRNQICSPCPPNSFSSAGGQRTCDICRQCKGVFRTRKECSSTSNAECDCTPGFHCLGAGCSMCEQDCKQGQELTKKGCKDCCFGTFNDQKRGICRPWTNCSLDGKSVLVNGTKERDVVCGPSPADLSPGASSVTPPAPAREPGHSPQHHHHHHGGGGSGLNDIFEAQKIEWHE
- Experiment: Biacore SPR, vs parent H183/L072
We label by threshold. Values of fold change of affinity strictly beneath 0.4 fold are y. Values of 0.4 fold and up are n.

{"Binder": "H183/L072 VL P56R (antibody, name in Kabat numbering, V domains shown, Dual-Ig) VH: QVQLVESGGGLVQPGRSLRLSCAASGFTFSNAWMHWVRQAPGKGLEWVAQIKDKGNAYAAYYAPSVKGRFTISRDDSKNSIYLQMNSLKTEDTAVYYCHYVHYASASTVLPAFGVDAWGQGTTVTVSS VL: DIVMTQSPLSLPVTPGEPASISCQASQELVHMNRNTYLHWYQQKPGQAPRLLIYKVSNRFRGVPDRFSGSGSGTDFTLKISRVEAEDVGVYYCAQGTSVPFTFGQGTKLEIK", "Assigned Category": "y"}
{"Binder": "H183/L072 VL L33G (antibody, name in Kabat numbering, V domains shown, Dual-Ig) VH: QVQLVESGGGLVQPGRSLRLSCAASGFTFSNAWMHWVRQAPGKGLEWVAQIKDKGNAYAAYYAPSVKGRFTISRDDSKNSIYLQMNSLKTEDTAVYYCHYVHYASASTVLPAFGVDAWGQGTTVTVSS VL: DIVMTQSPLSLPVTPGEPASISCQASQELVHMNRNTYGHWYQQKPGQAPRLLIYKVSNRFPGVPDRFSGSGSGTDFTLKISRVEAEDVGVYYCAQGTSVPFTFGQGTKLEIK", "Assigned Category": "y"}
{"Binder": "H183/L072 VL L33V (antibody, name in Kabat numbering, V domains shown, Dual-Ig) VH: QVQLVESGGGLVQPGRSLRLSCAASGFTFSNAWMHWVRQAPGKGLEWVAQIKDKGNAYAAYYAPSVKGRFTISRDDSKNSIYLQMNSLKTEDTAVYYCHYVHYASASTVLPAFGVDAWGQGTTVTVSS VL: DIVMTQSPLSLPVTPGEPASISCQASQELVHMNRNTYVHWYQQKPGQAPRLLIYKVSNRFPGVPDRFSGSGSGTDFTLKISRVEAEDVGVYYCAQGTSVPFTFGQGTKLEIK", "Assigned Category": "n"}
{"Binder": "H183/L072 VL E27aP (antibody, name in Kabat numbering, V domains shown, Dual-Ig) VH: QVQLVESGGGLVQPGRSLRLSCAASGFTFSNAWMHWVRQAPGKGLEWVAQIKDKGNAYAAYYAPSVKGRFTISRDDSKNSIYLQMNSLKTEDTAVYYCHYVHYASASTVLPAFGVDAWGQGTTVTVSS VL: DIVMTQSPLSLPVTPGEPASISCQASQPLVHMNRNTYLHWYQQKPGQAPRLLIYKVSNRFPGVPDRFSGSGSGTDFTLKISRVEAEDVGVYYCAQGTSVPFTFGQGTKLEIK", "Assigned Category": "n"}
{"Binder": "H183/L072 VL T92H (antibody, name in Kabat numbering, V domains shown, Dual-Ig) VH: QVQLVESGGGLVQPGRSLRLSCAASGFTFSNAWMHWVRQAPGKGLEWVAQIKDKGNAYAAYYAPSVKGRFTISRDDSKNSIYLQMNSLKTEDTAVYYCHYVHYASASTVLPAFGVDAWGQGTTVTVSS VL: DIVMTQSPLSLPVTPGEPASISCQASQELVHMNRNTYLHWYQQKPGQAPRLLIYKVSNRFPGVPDRFSGSGSGTDFTLKISRVEAEDVGVYYCAQGHSVPFTFGQGTKLEIK", "Assigned Category": "y"}
{"Binder": "H183/L072 VL V27cF (antibody, name in Kabat numbering, V domains shown, Dual-Ig) VH: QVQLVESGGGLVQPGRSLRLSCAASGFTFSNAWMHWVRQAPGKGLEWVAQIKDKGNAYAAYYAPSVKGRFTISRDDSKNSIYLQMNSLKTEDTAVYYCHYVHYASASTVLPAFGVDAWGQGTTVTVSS VL: DIVMTQSPLSLPVTPGEPASISCQASQELFHMNRNTYLHWYQQKPGQAPRLLIYKVSNRFPGVPDRFSGSGSGTDFTLKISRVEAEDVGVYYCAQGTSVPFTFGQGTKLEIK", "Assigned Category": "n"}
{"Binder": "H183/L072 VL R54S (antibody, name in Kabat numbering, V domains shown, Dual-Ig) VH: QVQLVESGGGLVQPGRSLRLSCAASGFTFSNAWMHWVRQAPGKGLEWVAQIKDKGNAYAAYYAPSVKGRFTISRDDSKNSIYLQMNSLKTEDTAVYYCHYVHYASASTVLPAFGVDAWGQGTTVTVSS VL: DIVMTQSPLSLPVTPGEPASISCQASQELVHMNRNTYLHWYQQKPGQAPRLLIYKVSNSFPGVPDRFSGSGSGTDFTLKISRVEAEDVGVYYCAQGTSVPFTFGQGTKLEIK", "Assigned Category": "n"}
{"Binder": "H183/L072 VL P95I (antibody, name in Kabat numbering, V domains shown, Dual-Ig) VH: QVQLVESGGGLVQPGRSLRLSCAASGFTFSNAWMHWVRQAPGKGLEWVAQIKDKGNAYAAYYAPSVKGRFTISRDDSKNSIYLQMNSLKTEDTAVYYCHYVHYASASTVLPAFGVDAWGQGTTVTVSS VL: DIVMTQSPLSLPVTPGEPASISCQASQELVHMNRNTYLHWYQQKPGQAPRLLIYKVSNRFPGVPDRFSGSGSGTDFTLKISRVEAEDVGVYYCAQGTSVIFTFGQGTKLEIK", "Assigned Category": "y"}
